For each record, write down the corresponding pEC50.
Target: native GluN2B‐containing NMDA receptors (Gallus gallus, UniProt F1NMB0+Q4KXT1)
Sequence (F1NMB0 entry or part of it, other chains not shown): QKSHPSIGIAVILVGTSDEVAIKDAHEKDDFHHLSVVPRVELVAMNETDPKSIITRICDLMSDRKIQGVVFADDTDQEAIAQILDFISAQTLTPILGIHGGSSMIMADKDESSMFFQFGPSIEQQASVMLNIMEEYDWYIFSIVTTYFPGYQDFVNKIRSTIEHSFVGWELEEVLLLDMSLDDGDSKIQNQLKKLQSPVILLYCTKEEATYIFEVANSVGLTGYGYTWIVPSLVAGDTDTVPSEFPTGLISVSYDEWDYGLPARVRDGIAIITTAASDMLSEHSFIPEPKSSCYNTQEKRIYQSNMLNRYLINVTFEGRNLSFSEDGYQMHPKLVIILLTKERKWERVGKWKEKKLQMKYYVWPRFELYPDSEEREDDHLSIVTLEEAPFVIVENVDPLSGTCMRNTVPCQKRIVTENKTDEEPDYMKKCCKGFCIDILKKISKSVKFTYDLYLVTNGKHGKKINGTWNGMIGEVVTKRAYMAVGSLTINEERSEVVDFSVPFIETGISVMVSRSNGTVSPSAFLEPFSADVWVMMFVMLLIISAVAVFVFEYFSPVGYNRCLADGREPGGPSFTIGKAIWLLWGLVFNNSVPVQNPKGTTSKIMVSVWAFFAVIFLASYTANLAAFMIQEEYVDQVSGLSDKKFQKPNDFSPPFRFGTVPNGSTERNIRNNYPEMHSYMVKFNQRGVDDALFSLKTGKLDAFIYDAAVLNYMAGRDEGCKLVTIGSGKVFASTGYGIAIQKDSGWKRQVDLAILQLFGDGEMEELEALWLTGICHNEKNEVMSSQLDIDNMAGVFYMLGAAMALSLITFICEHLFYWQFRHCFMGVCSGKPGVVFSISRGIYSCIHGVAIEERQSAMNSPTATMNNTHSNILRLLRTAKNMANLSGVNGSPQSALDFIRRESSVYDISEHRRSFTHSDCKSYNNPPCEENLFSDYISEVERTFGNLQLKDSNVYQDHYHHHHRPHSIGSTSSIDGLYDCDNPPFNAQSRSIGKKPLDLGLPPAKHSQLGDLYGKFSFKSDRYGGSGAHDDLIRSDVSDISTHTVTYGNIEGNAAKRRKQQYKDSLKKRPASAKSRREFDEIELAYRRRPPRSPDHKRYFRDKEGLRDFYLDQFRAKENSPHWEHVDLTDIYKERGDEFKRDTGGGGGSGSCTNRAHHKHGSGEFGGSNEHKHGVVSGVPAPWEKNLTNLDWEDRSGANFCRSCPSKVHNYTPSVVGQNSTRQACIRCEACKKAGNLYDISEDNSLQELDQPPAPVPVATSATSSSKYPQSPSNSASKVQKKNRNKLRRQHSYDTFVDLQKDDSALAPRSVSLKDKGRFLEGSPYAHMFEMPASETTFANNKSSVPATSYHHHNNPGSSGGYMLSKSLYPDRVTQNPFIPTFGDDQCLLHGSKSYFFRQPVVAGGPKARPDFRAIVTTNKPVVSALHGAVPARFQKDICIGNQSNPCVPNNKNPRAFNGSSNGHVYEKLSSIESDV
Test: Calcium influx measurement (Fura-2) in E10 chicken embryo forebrain cell culture at DIV1, induced with NMDA and glycine
Assay type: cell-based, chicken (Gallus gallus)
Conditions: primary cultures from chicken embryo forebrain (E10); read-out: EC50, inhibition of calcium influx
// pEC50: -log10(molar conc.)

Lookup: State the recorded pEC50 for this entry: `C[C@@H]([C@H](O)c1ccc(O)cc1)N1CCC(Cc2ccccc2)CC1`
Found: 7.22

Lookup: And what about the compound `Cc1nccn1Cc1cc(-c2ccc(F)c(C(F)F)c2)cnn1.Cl.Cl` ?
Found: 7.66

Lookup: And what about the compound CC(C(O)c1ccc(O)cc1)N1CCC(Cc2ccccc2)CC1 (centres unmarked) ?
Found: 7.00

Lookup: And what about the compound COc1cc2c(cc1O)C(CCc1ccc(Cl)cc1)N(C)CC2 (centres unmarked) ?
Found: 6.73

Lookup: And what about the compound OC(CN1CCC(Cc2ccc(F)cc2)CC1)c1ccc(Cl)cc1 (centres unmarked) ?
Found: 5.89
